Measured melting point, listed per entry for reference.

CCc1cccc(NC(=O)c2ccn3c2CSC3c2cccnc2)n1 (centres undefined)
150 °C
CCC1=Nc2nc(C3CCCC3)[nH]c2C2=N[C@H](Cc3ccccc3)CN12
187 to 189 °C
CCSCCn1c(=N)sc2cc(C(F)(F)C(F)(F)F)ccc21
< 50 °C

Attention now shifts to the item below.
Q) Reported melting point for "Brc1cnc2nc(N3CCN(CCCCOc4ccccc4)CC3)nn2c1" : what is it?
A) 122 to 123 °C

---

Property Measured: melting point

Look over these answered cases.
N#CC(Cc1c[nH]cn1)(c1ccccc1)c1ccc(Cl)cc1Cl (centres undefined)
215 to 218 °C
Nc1nc2c(ncn2OCCCCP(=O)(O)O)c(=O)[nH]1
208 °C
COc1ccc(-c2[nH]nc3c2C(=O)c2c(NC(=O)C4CC4)cccc2-3)cc1
289 °C
NC(=O)Cc1ccc([N+](=O)[O-])c(C(=O)c2ccc(Cl)cc2)c1
212 °C

Q) For "FC(F)(F)c1ccccc1N=C1CCc2cc3c(nc21)C(=Nc1ccccc1C(F)(F)F)CC3" , what is its reported melting point?
A) > 350 °C

Q) Quick one: melting point for "CN(C)CCc1cn(C(=O)c2ccccc2)c2ccc(O)cc12" ?
A) 154 to 156 °C

Q) Which value of melting point has been reported for COC(=O)C1=C(C)NC(C)=C(C(=O)OCCN2CCN(C(c3ccccc3)c3ccccc3)CC2)C1c1cccc(C(F)(F)F)c1 (centres undefined) in the records?
A) 70 to 72 °C

Q) Tell me the measured melting point of "CC(=O)c1cc(F)c(OCCOc2ccc3ccccc3c2)c(F)c1" , please.
A) 108 to 110 °C

Q) Form field: reported melting point of "Cn1cc(CO)c(=O)c2cccc(F)c21"
A) 206 to 210 °C

Q) Need melting point of COc1cc(N)c(Cl)cc1C(=O)NCCC1CN(Cc2ccc(C#N)cc2)CCO1 (centres undefined) , thanks.
A) 180 to 182 °C

Q) Consider the compound CC1C(=O)Nc2cc(N)c(N)cc21 (centres undefined) and give its measured melting point.
A) > 300 °C
